test system: A549; assay type: functional, Homo sapiens
Description: Tested in vitro for cytotoxic activity against lung carcinoma (A-549) cell line
ED50 reference
Reply numerically in µg/mL, unit not repeated.

# count of solved cases: 2
* COc1cccc(C2NC(=O)c3ccccc3N2)c1 (stereo unspecified) | 3
* COc1cccc(C2NC(=O)c3cc(Cl)ccc3N2)c1 (stereo unspecified) | 0.6

Fill in the blank: the reported ED50 of `COc1cccc(-c2nc(O)c3cc(Cl)ccc3n2)c1` is ____.
3.2

----------
system: KB; test: Tested in vitro for cytotoxic activity against P-glycoprotein-expressing epidermoid carcinoma of the nasopharynx(KB-VIN) cell line; type: functional, Homo sapiens
ED50 reference
Reply numerically in µg/mL, unit not repeated.

# count of solved cases: 5
• COc1cccc(-c2nc(O)c3cc(OC)ccc3n2)c1 = 3.5
• COc1cccc(-c2nc(O)c3cc(F)ccc3n2)c1 = 18
• COc1cccc(-c2nc(O)c3cc(Cl)ccc3n2)c1 = 6.5
• COc1cccc(-c2nc(O)c3cc(N4CCCC4)ccc3n2)c1 = 0.1
• COc1ccc(C2NC(=O)c3ccccc3N2)cc1OC (stereo unspecified) = 16

Fill in the blank: the reported ED50 of `COc1cccc(-c2nc(O)c3cc(N4CCCCC4)ccc3n2)c1` is ____.
0.6

Fill in the blank: the reported ED50 of COc1ccc(OC)c(C2NC(=O)c3ccccc3N2)c1 (stereo unspecified) is ____.
8.4

Fill in the blank: the reported ED50 of `COc1cccc(-c2nc(O)c3cc(N4CCOCC4)ccc3n2)c1` is ____.
3.7
